# Format: in vivo, human
# condition set: male, human, plasma, po, 25 mg, AUClast, opicapone 25 mg tablet, single oral dose, fasted, AUC24h, n=24, mean ± SD
measured quantity: AUC(0-t)
Param answer (str): number followed by unit.

Measured AUC(0-t), Cc1c(Cl)c(C)[n+]([O-])c(Cl)c1-c1noc(-c2cc(O)c(O)c([N+](=O)[O-])c2)n1 [Opicapone] : 2480 ng·h/mL

###

# Format: in vivo, human
# condition set: male, human, plasma, po, 25 mg, AUC0‐∞, opicapone 25 mg tablet, single oral dose, fasted, n=23, mean ± SD
measured quantity: AUC (ng·h/mL)
Give a bare numeral; the unit ng·h/mL is implied.

Measured AUC, "Cc1c(Cl)c(C)[n+]([O-])c(Cl)c1-c1noc(-c2cc(O)c(O)c([N+](=O)[O-])c2)n1" : 2530

###

# Assay type: in vivo, human
# condition set: male, human, plasma, po, 25 mg, tmax, opicapone 25 mg tablet, single oral dose, fasted, n=24, median (min-max)
measured quantity: Tmax
Param answer (str): number followed by unit.

Measured Tmax, Cc1c(Cl)c(C)[n+]([O-])c(Cl)c1-c1noc(-c2cc(O)c(O)c([N+](=O)[O-])c2)n1 [Opicapone] : 2 h

###

# Assay type: in vivo, human
# condition set: male, human, plasma, po, 50 mg, AUC0‐∞, opicapone 50 mg capsule, single oral dose, fasted, n=23, mean ± SD
measured quantity: AUC (ng·h/mL)
Give a bare numeral; the unit ng·h/mL is implied.

Measured AUC, "Cc1c(Cl)c(C)[n+]([O-])c(Cl)c1-c1noc(-c2cc(O)c(O)c([N+](=O)[O-])c2)n1" : 4210
